target: AII receptor (Bos taurus, UniProt P25104); construct: An AII receptor membrane fraction was prepared from bovine adrenal cortex; from tissue; host or cells: bovine adrenal cortex, membrane fraction; assay: Inhibition of binding of [125I]-angiotensinII to AII receptor (radioreceptor assay); details: 1 h; 10^-7 (M); membrane fraction from bovine adrenal cortex, room temperature, one hour
Give Condition met when the value for inhibition at 0.1 µM is at least 20%. Give Condition not met when it is less.

I'd appreciate it if you could say whether CCc1cc2c(=O)c3cccc(C(=O)O)c3n(Cc3ccc(-c4ccccc4-c4nnn[nH]4)cc3)c2s1 has inhibition at 0.1 µM at least equal to 20%.
Condition not met

I'd appreciate it if you could say whether CCc1cc2c(=O)c3cccc(C(=O)OC(C)OC(=O)OC4CCCCC4)c3n(Cc3ccc(-c4ccccc4-c4nnn[nH]4)cc3)c2s1 (centres unmarked) has inhibition at 0.1 µM at least equal to 20%.
Condition not met

I'd appreciate it if you could say whether CCCCc1nc2c(C)cnc(C(=O)O)c2n1Cc1ccc(-c2ccccc2-c2nnn[nH]2)cc1 has inhibition at 0.1 µM at least equal to 20%.
Condition met

I'd appreciate it if you could say whether CCCc1nn2ncc(C(=O)OCOC(=O)C(C)(C)C)c2n1Cc1ccc(-c2ccccc2-c2nnn[nH]2)cc1 has inhibition at 0.1 µM at least equal to 20%.
Condition met

I'd appreciate it if you could say whether CCCCc1nc2cccc(C(=O)O)c2n1Cc1ccc(-c2ccccc2-c2nnn[nH]2)nc1 has inhibition at 0.1 µM at least equal to 20%.
Condition met

---

Target: AII receptor (Bos taurus, UniProt P25104)
Construct: An AII receptor membrane fraction was prepared from bovine adrenal cortex; from tissue; host or cells: bovine adrenal cortex, membrane fraction
Sequence (P25104 1-359): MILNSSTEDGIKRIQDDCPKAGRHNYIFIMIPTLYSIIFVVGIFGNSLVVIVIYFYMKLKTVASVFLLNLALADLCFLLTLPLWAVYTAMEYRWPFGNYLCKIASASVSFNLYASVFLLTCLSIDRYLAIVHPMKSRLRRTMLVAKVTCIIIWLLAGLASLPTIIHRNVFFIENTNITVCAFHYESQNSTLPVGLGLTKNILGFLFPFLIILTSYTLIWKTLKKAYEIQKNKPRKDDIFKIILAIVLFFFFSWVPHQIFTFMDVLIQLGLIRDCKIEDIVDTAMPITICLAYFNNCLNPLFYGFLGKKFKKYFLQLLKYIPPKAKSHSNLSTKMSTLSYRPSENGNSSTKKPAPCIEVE
Assay: Inhibition of binding of [125I]-angiotensinII to AII receptor (radioreceptor assay)
Settings: 1 h; 10^-7 (M); membrane fraction from bovine adrenal cortex, room temperature, one hour
Hi there, I'd appreciate the recorded inhibition at 0.1 µM for every entry that follows.
API: value field is a number in %; no unit string.

inhibition at 0.1 µM for CCCc1cn2ncc(C(=O)O)c2n1Cc1ccc(-c2ccccc2-c2nn[nH]n2)cc1 is 60

inhibition at 0.1 µM for CCCCc1nc2cccc(C(=O)O)c2n1Cc1ccc(-n2cccc2-c2nnn[nH]2)cc1 is 27

inhibition at 0.1 µM for CCc1cc2c(=O)c3cccc(C(=O)OCOC(=O)C(C)(C)C)c3n(Cc3ccc(-c4ccccc4-c4nnn[nH]4)cc3)c2s1 is 31

inhibition at 0.1 µM for CCCc1nn2ncc(C(=O)O)c2n1Cc1ccc(-c2ccccc2-c2nnn[nH]2)cc1 is 54

inhibition at 0.1 µM for CCCCc1nc2cccc(C(=O)O)c2n1Cc1ccc2c(=O)n(-c3ccccc3-c3nnn[nH]3)cnc2c1 is 39

inhibition at 0.1 µM for CCOc1nc(C(=O)O)c2c(n1)nc(OCC)n2Cc1ccc(-c2ccccc2-c2nnn[nH]2)cc1 is 20

inhibition at 0.1 µM for CCCc1nc2c(C)cnc(C(=O)O)c2n1Cc1ccc(-c2ccccc2-c2nnn[nH]2)cc1 is 54

inhibition at 0.1 µM for CCCc1cc2cccc(C(=O)O)c2n1Cc1ccc(-c2ccccc2-c2nnn[nH]2)cc1 is 0
